- Tested on: kochia (Bassia scoparia)
- experiment: Test A1 preemergence, kochia
- Type: in vivo
- appliedConditions: 31 g ai/ha, 0 to 100 scale (0 no effect, 100 complete control)
- Source text: […]

| compound | Plant response rating, Kochia |
| --- | --- |
| Cc1cc(C2CC2)c(C2=NOC3CCCC23)cc1NS(=O)(=O)C(F)(F)F (centres unmarked) | 0 |
| CCC1CC(c2cc(NS(=O)(=O)C(F)(F)F)c(C)cc2C)=NO1 (centres unmarked) | 0 |
| Cc1cc(C2CC2)c(NS(=O)(=O)C(F)(F)F)cc1C1=NOC2(CCCC2)C1 | 0 |
| Cc1c(C(=O)N2CCCCC2)cc(N(COC(=O)C(C)(C)C)S(=O)(=O)C(F)(F)F)c(C)c1C | 0 |
| Cc1c(NS(=O)(=O)C(F)(F)F)cc(C(=O)N2CCOCC2)c(C)c1C | 20 |
| Cc1c(C(=O)N2CCSCC2)cc(N(COC(=O)C(C)(C)C)S(=O)(=O)C(F)(F)F)c(C)c1C | 20 |
| Cc1c(NS(=O)(=O)C(F)(F)F)cc(C(=O)N2CCC(C)CC2)c(C)c1C | 0 |
| Cc1cc(C)c(N2Cc3cccc(C)c3C2=O)cc1NS(=O)(=O)Cl | 0 |
